# Tested on: MCF7 breast
# experiment summary: NCI tumour cell line growth inhibition, 48 h; in the data active = GI50 below about 0.43 µM; inactive = the rest
Tick one outcome: Yes = active, No = inactive

INSERT INTO assay_data (compound, qualitative_label) VALUES
  ('N#Cc1ccc2c(c1)C(=O)c1c-2n(CCCCl)c(=O)c2cc([N+](=O)[O-])ccc12', 'Yes');

Query block: Could you kindly confirm the outcome this assay logged for C=C(C)[C@@H]1CC[C@]2(C(=O)O)CC[C@]3(C)[C@H](CC[C@@H]4[C@@]5(C)CCC(NC(=O)c6cccc(OC(C)=O)c6OC(C)=O)C(C)(C)[C@@H]5CC[C@]43C)[C@@H]12 (stereo partly specified) ?
Result block: No

Query block: Record request — test call for "C[C@@H](O)[C@H](NC(=O)N[C@@H](CC(N)=O)c1nc([C@@H](N)CO)no1)C(=O)O"
Result block: No

###

# System: MDA-N
# experiment summary: NCI tumour cell line growth inhibition, 48 h
quantity measured: TGI

INSERT INTO assay_data (molecule, recorded_value) VALUES
  ('CC1(C)CC2=C(Sc3ccccc3N2)C(=O)C1C(=O)C(=O)Nc1cccc([N+](=O)[O-])c1 (configuration not stated)', '> 100 µM'),
  ('CC1C/C(=C\c2ccc(OC(=O)C(C)(C)C)cc2)C(=O)/C(=C/c2ccc(OC(=O)C(C)(C)C)cc2)C1 (configuration not stated)', '> 100 µM'),
  ('CN(C)CCCNc1ccc2c(=O)n(CCN(C)C)c(=O)n3c4ccccc4c(=O)c1c23', '0.312 µM'),
  ('COc1ccc(/C=C2\CN(C)C/C(=C\c3ccc(OC)cc3)C2=O)cc1', '> 100 µM'),
  ('O=C1CCCCCCCCCCC1CCCCCBr (configuration not stated)', '> 100 µM');

Record TGI per entry; entries follow.
1. C/C(=N\n1c(Cc2ccccc2)n[nH]c1=O)c1ccccc1
2. CCN(CC)c1ccc2cc(C(N)=S)c(=N)oc2c1
3. O=C1c2ccccc2CN1c1ccc(OCCN2CCCCC2)cc1
4. CNC/C(Cl)=N/S(=O)(=O)c1ccc(C)cc1

Result block:
> 100 µM
> 100 µM
> 10 µM
29.5 µM

Quick batch: TGI for everything below.
1. C1CCCCC2(CCCCCCCCC3(CCC1)OCCO3)OCCO2
2. CSC1=Nc2ccccc2-c2nc3ccccc3cc2C1
3. CC1(C)CCc2c(c(N=Nc3ccc(S(N)(=O)=O)cc3)c3ccccc3c2O)O1

Result block:
> 100 µM
> 100 µM
9.72 µM

###

Consider the following compounds; for each one, report its TGI.
# Test system: NCI/ADR-RES ovarian
# experiment summary: NCI tumour cell line growth inhibition, 48 h
Where a SMILES comes first, the peptide text is derived from it. [ ]: non-standard residue; d: D form. The star is where a group is joined. Iva = CC[C](C)(N)C(=O)O; Boc = CC(C)(C)OC(=O)*; X52 = C1CCC(=NO*)C1

Worked set:
INSERT INTO measurements (compound, quantity_measured, recorded_value) VALUES
  ('CCCCCCCCCCCCN1[C@H]2CCC[C@H]2C(O)[C@@H]2CCC[C@@H]21 (stereo partly specified)', 'TGI', '> 100 µM'),
  ('Cc1c(S(=O)(=O)O)ccc(N=Nc2c(O)c(C(=O)O)cc3ccccc23)c1Cl', 'TGI', '> 100 µM');

State the recorded TGI for every item in the following list.
1. O=C1c2ccccc2CN1c1ccc(OCCN2CCCCC2)cc1
2. CCC(C)(NC(=O)C(C)NC(=O)OC(C)(C)C)C(=O)NC(C)C(=O)NC(C)(CC)C(=O)ON=C1CCCC1 (stereo unspecified) (Boc-A[Iva]A[Iva]-X52; configuration not given here)
3. C=C(NC(=O)C(=C)NC(=O)c1csc(C2=NC3c4csc(n4)C4NC(=O)c5csc(n5)C(C(C)(O)C(C)O)NC(=O)C5CSC(=N5)C(=CC)NC(=O)C(C(C)O)NC(=O)c5csc(n5)C3(CC2)NC(=O)C(C)NC(=O)C(=C)NC(=O)C(C)NC(=O)C(C(C)CC)NC2C=Cc3c(C(C)O)cc(nc3C2O)C(=O)OC4C)n1)C(N)=O (stereo unspecified)
4. CCOC(=O)NC1C2CC(=O)OC(O2)C1OC(C)=O (stereo unspecified)
5. CN(C)CCCNc1ccc2c(=O)n(CCN(C)C)c(=O)n3c4ccccc4c(=O)c1c23
6. O=c1[nH]/c(=C/c2ccc(OCc3ccccc3)cn2)c(=O)[nH]/c1=C/c1ccc(F)cc1
7. COc1ccc(-c2cc(-c3cccn3C)c(C#N)c(=O)[nH]2)cc1OC

Result block:
1. > 10 µM
2. > 100 µM
3. > 100 µM
4. > 100 µM
5. 4.02 µM
6. > 37 µM
7. > 100 µM

Batch lookup, TGI per entry.
1. Cc1ccc2c(-c3ccnc(Nc4ccccc4)n3)c(-c3ccc(F)cc3)nn2n1
2. O=C1c2ccccc2C(=O)N1CC1S(=O)(=O)OCCOS1(=O)=O
3. COC(=O)c1cc2c3ccccc3n3c(=O)c4cc5ccccc5nc4c(n1)c23
4. Cc1cc(=O)oc2c(C)c(O)ccc12
5. CCC(=O)Nc1ccccc1C#C/C=C\C#Cc1ccccc1SC
6. COc1cc2ncn(-c3cc(O[C@@H](C)c4ccccc4Cl)c(C(N)=O)s3)c2cc1OC
7. N#CC(C#N)=C/C=C(\Sc1c(Cl)c(Cl)nc(Cl)c1Cl)c1ccc(Cl)cc1
8. N#CC1=C(N)Oc2c(ccc3ccccc23)C1c1ccccc1 (stereo unspecified)

Result block:
> 25 µM
> 100 µM
> 100 µM
> 100 µM
65.2 µM
> 25 µM
36.1 µM
1.68 µM

###

# System: EKVX NSCLC
# experiment summary: NCI tumour cell line growth inhibition, 48 h
quantity measured: TGI

Reference set, count: 2
INSERT INTO assay_data (compound, target, quantity_measured, recorded_value) VALUES
  ('CNC/C(Cl)=N/S(=O)(=O)c1ccc(C)cc1', 'EKVX NSCLC', 'TGI', '40.4 µM'),
  ('COc1ccc(/C(=N\NC(=O)C(=O)NN)C(c2ccc(OC)cc2)C2(O)C(=O)Nc3ccccc32)cc1 (centres undefined)', 'EKVX NSCLC', 'TGI', '> 100 µM');

Would you be so kind as to report TGI for each listed record?
1. Cc1ccccc1NC(=O)c1c(C)oc2c1C(=O)c1ccccc1C2=O
2. Cc1ccc(/C(O)=C/c2nc3c(nc2NC24CC5CC(CC(C5)C2)C4)c(=O)oc2ccccc23)cc1
3. C=CCN1C(=O)/C(=C\c2cc(C(C)(C)C)c(O)c(C(C)(C)C)c2)NC1=S
4. C/C=C1\C=C(OC)CN(CCc2c[nH]c3ccccc23)C1
5. COc1ccc(C(=O)C(C(=O)CC(=O)Nc2cccc(C(F)(F)F)c2)c2ccc(OC)cc2)cc1 (centres undefined)
6. CC(C)(Oc1ccccc1)C(=O)Sc1c(-c2ccccc2)c(=O)n(-c2ccccc2)c(=S)n1-c1ccccc1

Result block:
1. > 100 µM
2. > 100 µM
3. 65.1 µM
4. > 100 µM
5. > 100 µM
6. > 100 µM

Reported EKVX NSCLC TGI for item CC1C/C(=C\c2ccc(OC(=O)C(C)(C)C)cc2)C(=O)/C(=C/c2ccc(OC(=O)C(C)(C)C)cc2)C1 (centres undefined) was > 100 µM

###

Consider the following molecules; for each one, report its TGI.
# Tested on: 786-0 renal
# experiment summary: NCI tumour cell line growth inhibition, 48 h

Solved cases (5 shown):
INSERT INTO measurements (molecule, recorded_value) VALUES
  ('Cc1cccc2c1C(=O)[C@](C)([C@]1(C)Nc3cccc(C)c3C1=O)N2', '> 100 µM'),
  ('CO[C@@H]1C[C@H]2[C@@H]3CC[C@H]([C@@H](C)CO)[C@@]3(C)CC[C@@H]2[C@@]2(C)CC[C@H]3C[C@]312', '> 100 µM'),
  ('N#Cc1c(=O)c2ccccc2n2c1[nH]c1ccccc12', '> 100 µM'),
  ('Cc1cc(=O)oc2c(C)c(O)ccc12', '> 100 µM'),
  ('CSC1=Nc2ccccc2-c2nc3ccccc3cc2C1', '> 100 µM');

Parameters: items (list). Returns: TGI for each item.
1. COc1ccc(/C=C2\CN(C)C/C(=C\c3ccc(OC)cc3)C2=O)cc1
2. O=C1c2ccccc2-c2oc(=O)c3ccccc3c21

Result block:
> 100 µM
> 100 µM

List TGI for every entry below, keeping the order given.
1. NC(N)=NS(=O)(=O)c1ccc(NNc2c3ccccc3nc3c(C(=O)Nc4ccc(S(=O)(=O)N=C(N)N)cc4)cccc23)cc1
2. COc1cc(OC)c(SSCCCCS(=O)O)c(OC)c1
3. O=C1NC(=O)C(c2ccccc2Cl)=C1Nc1cc(Cl)c(O)c(Cl)c1

Result block:
1. > 100 µM
2. 35.4 µM
3. > 25 µM

Data origin: PubChem BioAssay (NCI)
